Measured IC50, listed per entry.
study.target: p110β/p85α (Homo sapiens)
experiment.summary: Transcreener KINASE Assay, kinase inhibition of p110β/p85α
assay.context: read-out: PI3Kβ IC50
# unit: nM | format: bare number

# lookup: IC50 of `COCCO[C@H]1C[C@@H](c2nn3ccc(Cl)c3c(=O)n2-c2ccccc2)N(c2ncnc3[nH]cc(C#N)c23)C1`
69

Item: CC(Nc1ncnc2[nH]cc(-c3ccc(N)nc3)c12)c1cc2ncc(Cl)n2c(=O)n1-c1ccccc1 (centres unmarked)
23

Next up: `O=c1c2c(Cl)ccn2nc([C@@H]2CCCN2c2ncnc3[nH]cc(C4=NCCO4)c23)n1-c1ccccc1`
21

* * *

study.target: p110δ/p85α (Homo sapiens, UniProt O00329)
Sequence (O00329 whole entry): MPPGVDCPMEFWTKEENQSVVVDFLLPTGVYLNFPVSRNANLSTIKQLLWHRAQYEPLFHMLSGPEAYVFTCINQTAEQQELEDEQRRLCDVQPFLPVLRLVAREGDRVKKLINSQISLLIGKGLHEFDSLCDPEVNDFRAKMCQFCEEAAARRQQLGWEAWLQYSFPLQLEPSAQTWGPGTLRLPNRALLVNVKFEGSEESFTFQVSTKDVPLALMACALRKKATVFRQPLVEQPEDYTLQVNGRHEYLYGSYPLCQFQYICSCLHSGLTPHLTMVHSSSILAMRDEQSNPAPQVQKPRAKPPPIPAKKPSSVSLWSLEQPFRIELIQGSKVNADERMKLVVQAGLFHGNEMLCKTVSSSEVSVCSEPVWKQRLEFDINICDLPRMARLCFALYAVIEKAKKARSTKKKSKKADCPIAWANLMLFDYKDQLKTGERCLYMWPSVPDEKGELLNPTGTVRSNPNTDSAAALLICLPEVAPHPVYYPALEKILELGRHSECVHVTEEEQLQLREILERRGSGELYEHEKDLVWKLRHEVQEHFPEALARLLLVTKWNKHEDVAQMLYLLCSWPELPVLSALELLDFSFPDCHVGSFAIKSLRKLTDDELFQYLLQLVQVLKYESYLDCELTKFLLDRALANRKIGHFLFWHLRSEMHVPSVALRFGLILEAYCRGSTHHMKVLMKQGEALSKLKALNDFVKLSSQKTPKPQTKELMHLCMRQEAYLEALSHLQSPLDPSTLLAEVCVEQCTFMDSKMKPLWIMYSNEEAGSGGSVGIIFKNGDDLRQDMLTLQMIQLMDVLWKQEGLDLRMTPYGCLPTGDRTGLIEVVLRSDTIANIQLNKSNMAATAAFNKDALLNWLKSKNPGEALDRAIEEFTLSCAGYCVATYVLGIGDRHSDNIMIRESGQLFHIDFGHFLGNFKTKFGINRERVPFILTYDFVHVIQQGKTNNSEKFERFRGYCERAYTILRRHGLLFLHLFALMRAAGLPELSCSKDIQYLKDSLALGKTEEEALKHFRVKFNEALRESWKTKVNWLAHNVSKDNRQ
Sequence (P27986 whole entry partner): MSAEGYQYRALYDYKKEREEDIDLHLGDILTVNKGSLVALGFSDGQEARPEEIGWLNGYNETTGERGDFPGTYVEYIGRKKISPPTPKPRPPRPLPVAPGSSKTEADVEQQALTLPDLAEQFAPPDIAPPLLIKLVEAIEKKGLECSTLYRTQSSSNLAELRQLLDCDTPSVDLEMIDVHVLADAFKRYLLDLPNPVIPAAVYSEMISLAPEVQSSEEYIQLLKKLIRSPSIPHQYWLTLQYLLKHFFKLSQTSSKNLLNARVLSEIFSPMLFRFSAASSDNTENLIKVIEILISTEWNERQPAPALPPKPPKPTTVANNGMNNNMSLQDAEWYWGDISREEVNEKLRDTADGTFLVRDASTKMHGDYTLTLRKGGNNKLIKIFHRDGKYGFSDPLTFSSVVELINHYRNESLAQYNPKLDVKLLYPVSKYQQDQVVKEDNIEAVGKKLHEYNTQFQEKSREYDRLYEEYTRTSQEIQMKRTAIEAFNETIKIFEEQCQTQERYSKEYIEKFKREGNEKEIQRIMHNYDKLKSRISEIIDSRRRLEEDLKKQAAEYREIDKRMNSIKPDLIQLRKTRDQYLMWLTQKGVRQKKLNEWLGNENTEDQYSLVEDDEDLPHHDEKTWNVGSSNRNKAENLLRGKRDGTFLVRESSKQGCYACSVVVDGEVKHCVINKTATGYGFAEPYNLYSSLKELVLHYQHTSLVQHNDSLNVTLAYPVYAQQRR
experiment.summary: Transcreener KINASE Assay, kinase inhibition of p110δ/p85α
Assay type: biochemical
assay.context: read-out: PI3Kδ IC50
measured.property: IC50 (nM)
Value expressed in nM; do not type the unit.

1) CC(Nc1nc(N)nc2c1C(=O)CCN2)c1cc2ncc(Cl)n2c(=O)n1-c1ccccc1 (stereo not shown) :: 1
2) CC(=O)c1c(N)ncnc1N1CC[C@H]1c1nn2ccc(Cl)c2c(=O)n1-c1ccccc1 :: 29
3) O=c1c2c(Cl)ccn2nc([C@@H]2CCN2c2ncnc3[nH]cnc23)n1-c1ccccc1 :: 84

Turning to the following molecule.
Given the entry C[S+]([O-])c1c[nH]c2ncnc(N3CCC[C@H]3c3nn4ccc(Cl)c4c(=O)n3-c3cccc(F)c3)c12 (single isomer, unassigned) [Compound 387] , report its measured IC50.
7

* * *

study.target: p110δ/p85α (Homo sapiens, UniProt O00329)
experiment.summary: Transcreener KINASE Assay, kinase inhibition of p110δ/p85α
Assay type: biochemical
assay.context: 1 uM test compound
Entries and their PI3Kδ IH % @ 1 uM values follow.

So what's the measured PI3Kδ IH % @ 1 uM for this one? `N#Cc1c[nH]c2ncnc(N3CC[C@H]3c3nn4ccc(Cl)c4c(=O)n3-c3ccccc3)c12`
>100%

Do the same for CC(Nc1ncnc(N)c1C#N)c1cc2ncc(Cl)n2c(=O)n1-c1ccccc1 (centres unmarked) please
>100%

* * *

study.target: p110β/p85α (Homo sapiens, UniProt P42338)
Sequence (P42338 whole entry, one chain of several): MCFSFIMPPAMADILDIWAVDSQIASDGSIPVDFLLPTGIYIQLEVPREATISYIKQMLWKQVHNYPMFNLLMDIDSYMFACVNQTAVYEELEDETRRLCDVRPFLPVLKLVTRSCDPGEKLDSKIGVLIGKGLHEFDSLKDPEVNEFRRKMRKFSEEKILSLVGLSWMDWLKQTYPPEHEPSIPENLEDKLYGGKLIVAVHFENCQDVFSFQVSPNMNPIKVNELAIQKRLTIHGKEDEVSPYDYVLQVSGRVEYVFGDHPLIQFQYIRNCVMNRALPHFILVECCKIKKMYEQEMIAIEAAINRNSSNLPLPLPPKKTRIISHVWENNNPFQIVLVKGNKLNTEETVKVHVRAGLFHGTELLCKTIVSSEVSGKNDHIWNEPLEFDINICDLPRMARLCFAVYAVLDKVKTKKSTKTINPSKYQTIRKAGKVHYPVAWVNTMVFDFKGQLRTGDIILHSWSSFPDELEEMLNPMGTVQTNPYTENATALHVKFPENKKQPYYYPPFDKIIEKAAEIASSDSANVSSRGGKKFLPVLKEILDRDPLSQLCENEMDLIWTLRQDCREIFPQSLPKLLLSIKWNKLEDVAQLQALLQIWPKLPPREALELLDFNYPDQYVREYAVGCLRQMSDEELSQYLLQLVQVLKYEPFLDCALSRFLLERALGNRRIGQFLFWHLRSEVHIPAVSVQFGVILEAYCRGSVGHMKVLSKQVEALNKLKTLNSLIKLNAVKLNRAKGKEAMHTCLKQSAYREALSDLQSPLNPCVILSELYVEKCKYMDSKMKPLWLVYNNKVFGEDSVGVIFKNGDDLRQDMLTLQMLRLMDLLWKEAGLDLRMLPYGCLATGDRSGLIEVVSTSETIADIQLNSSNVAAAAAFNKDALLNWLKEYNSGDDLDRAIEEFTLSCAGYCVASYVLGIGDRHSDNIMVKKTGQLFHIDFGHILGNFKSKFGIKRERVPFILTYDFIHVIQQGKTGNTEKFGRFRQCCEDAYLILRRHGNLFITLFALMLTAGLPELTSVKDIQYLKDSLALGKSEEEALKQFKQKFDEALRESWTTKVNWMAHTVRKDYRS
experiment.summary: Transcreener KINASE Assay, kinase inhibition of p110β/p85α
Assay type: biochemical
assay.context: 1 uM test compound
Please mark met if the recorded PI3Kβ IH % @ 1 uM is equal to or greater than 70%, and not met if it falls below.

Worked examples follow.
1) CCC(Nc1ncnc2[nH]cnc12)c1cn2ccc(Cl)c2c(=O)n1-c1cccc(F)c1 (stereo not shown) [Compound 85] :: met
2) N#Cc1c[nH]c2ncnc(N3CC[C@H]3c3nn4cccc4c(=O)n3-c3ccccc3)c12 [Compound 6] :: not met
3) CC(=O)c1cnc(N)nc1N1CC(=O)C[C@H]1c1nn2ccc(F)c2c(=O)n1-c1ccccc1 [Compound 446] :: not met
4) CC(=O)c1cnc(N)nc1NC(C)c1cn2ccc(F)c2c(=O)n1-c1ccccc1 (single isomer, unassigned) [Compound 452] :: met
5) N#Cc1c[nH]c2ncnc(N3CCC[C@H]3c3nn4ccc(Cl)c4c(=O)n3Cc3cccnc3)c12 [Compound 66] :: not met

Identify whether the reported PI3Kβ IH % @ 1 uM of the following compound is 70% or greater: O=c1c2c(Cl)ccn2nc([C@@H]2CCCN2c2ncnc3[nH]cnc23)n1CCN1CCOCC1 [Compound 253]
not met

Ok, now CO/N=C(\C)c1c[nH]c2ncnc(N3CCC[C@H]3c3nn4ccc(Cl)c4c(=O)n3-c3ccccc3)c12 [Compound 308]
not met

Next compound up: C[C@H]1CN(c2nc(N)nc(N)c2C#N)[C@@H]1c1nn2ccc(Cl)c2c(=O)n1-c1ccccc1 [Compound 481]
met
